Field: Ki. System: Histone deacetylase 1 (Homo sapiens, UniProt Q13547). Provenance: assorted publications.
Sequence (Q13547 whole entry): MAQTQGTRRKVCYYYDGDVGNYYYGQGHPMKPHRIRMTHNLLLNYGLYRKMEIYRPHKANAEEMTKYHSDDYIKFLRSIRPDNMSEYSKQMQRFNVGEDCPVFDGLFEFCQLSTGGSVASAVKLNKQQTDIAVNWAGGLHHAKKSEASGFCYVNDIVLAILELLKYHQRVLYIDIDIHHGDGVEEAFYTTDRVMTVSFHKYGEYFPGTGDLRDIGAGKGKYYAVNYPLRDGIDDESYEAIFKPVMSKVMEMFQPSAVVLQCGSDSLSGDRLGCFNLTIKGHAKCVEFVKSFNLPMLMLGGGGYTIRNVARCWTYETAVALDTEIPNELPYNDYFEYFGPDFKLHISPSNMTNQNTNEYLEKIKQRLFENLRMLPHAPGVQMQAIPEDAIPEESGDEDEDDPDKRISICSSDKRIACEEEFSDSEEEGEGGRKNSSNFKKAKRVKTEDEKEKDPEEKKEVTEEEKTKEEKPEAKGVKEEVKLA
ENDPOINT_LABEL: Ki (nM)

The following compounds have reported results that may help.
>>> observed_result("O=C(CCCCCNC(=O)NC(=O)c1ccc(Br)cc1)NO")
8
>>> observed_result("CCC(C)Oc1ccc(/C=C/C(=O)/C=C(O)/C=C/c2ccc(OC(C)CC)c(OC)c2)cc1OC (stereo unspecified)")
20700

[I] C/C=C1\NC(=O)[C@@H](C)NC(=O)[C@@H](C(C)C)NC(=O)C[C@@H](CCC)OC(=O)[C@H](C(C)C)NC1=O
[II] CCC[C@@H]1NC(=O)[C@H](C)NC(=O)C[C@H](CC(C)C)NC(=O)[C@H](Cc2cn(CN(C)C)c3ccccc23)NC1=O
(Q) I need your help: which of the pair I , II has higher Ki? To answer, give the label that identifies your chosen option.
(A) I
(I: 690 nM, II: 49 nM)
